test system: Erwinia amylovora PMV6076; test: In vitro growth inhibition (MIC); type: cell-based; conditions: TSB, 25°C, 48 h, OD 600 nm (Bioscreen C), three replicates, experiment repeated twice; MIC = lowest concentration with no growth, given as range
No end group written: not given here.
This listing pairs substances with measured MIC, Ea.

Use these answered entries as a reference point.
H-KKVVFWVKFKFKLFKKILKVL-NH2 [KSLW-BP13] = 25 to 50 µM
RINSAKDDAAGLQIA-KKLFKKILKYL-NH2 [flg15-BP100, peptide conjugate, flg15 at N-terminus, BP100 at C-terminus] = 6.2 to 12.5 µM
KKLFKKILKKLVWNQPVRGFKVYE [BP16-Pep13] = 6.2 to 12.5 µM

Output MIC, Ea of FKLFKKILKVL-KKLFKKILKYL-NH2 [BP13-BP100, peptide conjugate, BP13 at N-terminus, BP100 at C-terminus]
> 50 µM

Give MIC, Ea for the following substance: H-RINSAKDDAAGLQIAKKLFKKILKKL-NH2 [flg15-BP16]
3.1 to 6.2 µM

----------
test system: horse erythrocytes; conditions: TRIS buffer pH 7.2, 1 h, 37°C, absorbance 540 nm, relative to melittin 100 μM, ± confidence interval (α = 0.05)
metric: Percent hemolysis at 375 μM (%)
Express the result in % but write the number alone.

The cases that follow already have their Percent hemolysis at 375 μM on record.
RINSAKDDAAGLQIA-OH [flg15] = 0
H-FKLFKKILKVLKKVVFWVKFK-NH2 [BP13-KSLW] = 99
FKLFKKILKVL-KKLFKKILKKL-NH2 [BP13-BP16] = 93
KKVVFWVKFK-RINSAKDDAAGLQIA-OH [KSLW-flg15] = 8

Output reported Percent hemolysis at 375 μM of the substance H-RINSAKDDAAGLQIAKKLFKKILKKL-NH2 [flg15-BP16] on horse erythrocytes.
5

Report its Percent hemolysis at 375 μM with horse erythrocytes as the test system: Ac-KKLFKKIK(COC3H7)KYL-RINSAKDDAAGLQIA-OH [BP387-flg15]
9

----------
test system: horse erythrocytes; settings: TRIS buffer pH 7.2, 1 h, 37°C, absorbance 540 nm, relative to melittin 100 μM, ± confidence interval (α = 0.05)
Non-standard residues stand in square brackets, D forms with d. Residues, ends and D or L forms follow the SMILES beside them. *: point of attachment. Butyryl = CCCC(=O)*
Listed here are compounds together with their documented Percent hemolysis at 150 μM.
Give the quantity in %, number only.

CCCC(=O)NCCCC[C@H](NC(=O)[C@H](CCCCN)NC(=O)[C@H](CC(C)C)NC(=O)[C@@H](NC(=O)[C@H](CCCCN)NC(=O)[C@H](CCCCN)NC(=O)[C@@H](Cc1ccccc1)NC(=O)[C@H](CC(C)C)NC(=O)[C@H](CCCCN)NC(=O)[C@H](CCCCN)NC(C)=O)[C@@H](C)CC)C(=O)N[C@@H](CC(C)C)C(N)=O [BP475, reference compound] (Ac-KKL[dF]KKILKK(Butyryl)L-NH2) = 0

Name the recorded Percent hemolysis at 150 μM of the item CC[C@H](C)[C@H](NC(=O)[C@H](CCCCN)NC(=O)[C@H](CCCCN)NC(=O)[C@H](Cc1ccccc1)NC(=O)[C@H](CC(C)C)NC(=O)[C@H](CCCCN)NC(=O)[C@@H](N)CCCCN)C(=O)N[C@@H](CC(C)C)C(=O)N[C@@H](CCCCN)C(=O)N[C@@H](CCCCN)C(=O)N[C@@H](CC(C)C)C(N)=O [BP16, reference compound] in your answer.
1
